system under test: Glucocorticoid receptor (Homo sapiens, UniProt P04150)
Sequence (P04150 whole entry): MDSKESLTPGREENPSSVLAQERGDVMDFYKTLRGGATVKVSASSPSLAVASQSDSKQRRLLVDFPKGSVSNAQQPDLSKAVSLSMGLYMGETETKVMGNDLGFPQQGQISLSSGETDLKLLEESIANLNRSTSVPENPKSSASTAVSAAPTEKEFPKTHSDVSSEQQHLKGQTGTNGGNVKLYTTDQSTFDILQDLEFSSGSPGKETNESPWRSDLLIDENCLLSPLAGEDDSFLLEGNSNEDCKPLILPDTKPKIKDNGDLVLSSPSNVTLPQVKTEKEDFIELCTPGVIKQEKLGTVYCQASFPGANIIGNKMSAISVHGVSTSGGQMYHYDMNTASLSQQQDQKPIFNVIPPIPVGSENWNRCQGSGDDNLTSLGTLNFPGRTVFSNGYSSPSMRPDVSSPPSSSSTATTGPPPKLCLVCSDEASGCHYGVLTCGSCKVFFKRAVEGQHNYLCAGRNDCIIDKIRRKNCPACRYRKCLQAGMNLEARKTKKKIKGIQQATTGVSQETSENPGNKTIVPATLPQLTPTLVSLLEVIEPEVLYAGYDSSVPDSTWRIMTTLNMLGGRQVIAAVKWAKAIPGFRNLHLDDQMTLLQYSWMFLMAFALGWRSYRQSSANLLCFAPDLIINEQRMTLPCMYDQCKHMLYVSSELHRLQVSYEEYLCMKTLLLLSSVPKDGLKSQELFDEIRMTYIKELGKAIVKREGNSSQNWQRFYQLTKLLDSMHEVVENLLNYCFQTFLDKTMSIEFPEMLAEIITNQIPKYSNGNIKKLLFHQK
assay notes: Displacement of [3H]dexamethasone from human glucocorticoid receptor expressed in baculovirus infected Sf9 cells after overnight incubation by scintillation counting
metric name: pIC50
Answer as the number alone; pIC50 is minus log10 of concentration in mol/L.

The measured pIC50 that "COc1ccc(Oc2ccc(CN(Cc3cc(F)cc(F)c3)c3c(Br)cc(CC(=O)O)cc3Br)cc2)c(OC)c1" showed for Glucocorticoid receptor (Homo sapiens, UniProt P04150) is 5.80

Form field pIC50 for item "O=C(O)Cc1cc(Br)c(N(Cc2ccc(Oc3ccccc3)cc2)Cc2cc(F)cc(F)c2)c(Br)c1" on Glucocorticoid receptor (Homo sapiens, UniProt P04150): 6.14

Field pIC50 (system: Glucocorticoid receptor (Homo sapiens, UniProt P04150)) for entry "O=C(O)Cc1ccc(N(Cc2ccccc2)Cc2ccc(Oc3ccccc3)cc2)cc1" = 5.72
